Catalogue of GI50 values
System: NCI-H522
Test: NCI tumour cell line growth inhibition, 48 h
Active and inactive are the calls of the source. No stated cut-off is given here; in the data, active = GI50 up to about 1.1 µM and inactive = higher.
readout.type: GI50

- N#CCCn1c(S)nnc1CCC(=O)Nc1ccc(Cl)cc1Cl: > 100 µM (inactive)
- O=c1[nH]nc(-c2ccccc2)c2[nH]c3c4ccccc4ccc3c12: 0.753 µM (active)
- O=c1oc(=O)c2oc3ccccc3oc1=2: > 100 µM (inactive)
- Cc1cc2c(s1)C(=O)c1sccc1C2=O: 0.552 µM (active)
- CSCCCNC(=O)c1csc(-c2csc(CCNC(=O)CNC(=O)OC(C)(C)C)n2)n1: > 100 µM (inactive)
- COc1cc(C=O)c(-c2c(C=O)ccc3c2OCO3)c(OC)c1OC: 88.5 µM (inactive)
- Cn1c(NC(=O)NC23CC4CC(CC(C4)C2)C3)nc2ccccc21: 78.7 µM (inactive)
- CN(C)c1nc(N(C)C)nc(N(C)C)n1 [ALTRETAMINE]: 141 µM (inactive)
- CCc1cccc(C(C)(C)C)c1NC(=S)N/C=C(/C#N)C(N)=O: > 100 µM (inactive)
- C=C1C2CCC3C4(C)CCCC(C)(C(=O)O)C4CCC3(C2)C1OC(=O)/C(C)=C/C (centres undefined): 31.8 µM (inactive)
- CCNC(=O)c1ccc(C)c(/N=N/N(C)C)c1: 81.1 µM (inactive)
- CN(O)C(=O)Cc1ccc(OCc2cccc(Cl)c2)cc1: > 100 µM (inactive)
- O=S(=O)(SCCCCSS(=O)(=O)c1ccc(Cl)cc1)c1ccc(Cl)cc1: 5.06 µM (inactive)
- O=c1cc(-c2ccccc2)oc2ccc(Cl)cc12 [6-CHLOROFLAVONE]: 64.3 µM (inactive)
- C=C=C(C(=O)OC)[S+]([O-])c1ccc([N+](=O)[O-])cc1[N+](=O)[O-] (centres undefined): 14.2 µM (inactive)
- CCc1ccccc1NC(=O)C(=O)CC(=O)c1sc(Nc2ccccc2Cl)nc1C: 18.1 µM (inactive)
- COC(=N)C1(C#N)NC(c2ccsc2)C(C#N)(C#N)NC1c1ccsc1 (centres undefined): > 100 µM (inactive)
- CN1C2CCC1CC(=CCOC(c1ccc(F)cc1)c1ccc(F)cc1)C2: 11.6 µM (inactive)
- COc1cc2c(c(OC)c1O)-c1ccc(SC)c(=O)cc1C(NC(C)=O)CC2 (centres undefined): < 0.01 µM (active)

* * *

Tested on: NCI-H226
Experiment: NCI tumour cell line growth inhibition, 48 h
Active and inactive are the calls of the source. Rule as the data show it: active = GI50 up to about 1.1 µM and inactive = higher.
readout.type: GI50

- C[C@@H]1C(=O)CC2(O)[C@@]13C[C@@H](OC(=O)[C@@H]3O)[C@@H](C)[C@@]21COC1=O (stereo not given in full): > 100 µM (inactive)
- COc1ccc(C[C@@H](C(=O)O[C@H](C)[C@H](NC(=O)[C@@H](CC(C)C)N(C)C(=O)C2CCCN2C(=O)[C@H](C)O)C(=O)N2CCCCNC(=O)[C@@H](C)C(=O)[C@H](C(C)C)OC(=O)C[C@H](O)[C@H]2CC(C)C)N(C)C(C)=O)cc1 (stereo not given in full): 11.7 µM (inactive)
- COc1ccc(/C=C/c2nsc(/C=C/c3ccc(OC)cc3)n2)cc1: > 100 µM (inactive)
- Cc1ccc2oc3c(ccc(=O)n3C)c(=O)c2c1: > 100 µM (inactive)
- CCc1cccc(C(C)(C)C)c1NC(=S)N/C=C(/C#N)C(N)=O: > 100 µM (inactive)
- Cc1ccc(OCC2OC(n3cnc4c(Cl)nc(Cl)nc43)CC2Oc2ccc(C)cc2)cc1 (stereo not given): 3 µM (inactive)
- C=C1C(=O)O[C@H]2[C@H]1[C@@H](OC(=O)C=C(C)C)CC1=C[C@@H](C[C@@]3(C)O[C@@H]23)OC1=O: 21.2 µM (inactive)
- CC(C)(C)C1CC[C@H]2c3c([nH]c4ccccc34)[C@H]3C(=O)N(c4ccc(F)cc4)C(=O)[C@H]3[C@H]2C1 (stereo not given in full): 19.1 µM (inactive)
- CCCCCC(=O)Nc1nc(O)c2[nH]cnc2n1: > 100 µM (inactive)
- CC1CCC2N(C1)CC1C3(O)CC45OC6(O)C(O)CCC4(C)C6CCC5C3(O)CC(O)C1(O)C2(C)O (stereo not given): > 100 µM (inactive)
